B1: Hairpin Ribozyme (parent)
chain: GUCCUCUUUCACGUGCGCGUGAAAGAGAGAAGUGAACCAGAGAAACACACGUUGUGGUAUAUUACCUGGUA

# Variants of: B1
# assay-summary: self-cleavage, relative activity (ratio to wild type); higher = more cleavage; co-transcriptional
We'd kindly ask you to apply these self-cleavage classes: L (below 0.2), M (0.2 to below 0.5), H (0.5 or more)

INSERT INTO results (mutations, discrete_label) VALUES
  ('A22C C65U', 'M'),
  ('A24C C37A', 'M'),
  ('A28G C48G', 'L'),
  ('C6U U20C', 'H'),
  ('G27C A64U', 'L');

We next turn to a different variant, shown below.
In: Which self-cleavage band matches A59C U70A ?
Out: L
